Condition label: pH 7.4
Readout kind: dependence of solubility on pH (in words)

| Compound | Result |
| --- | --- |
| O=C(Nc1sc2c(c1C(=O)N1CCC(CO)C1)CCCC2)c1cccnc1 (stereo not shown) | inversely proportional |
| Cn1ccnc1SCC(=O)Nc1sc2c(c1C(=O)NCc1ccccc1)CCCC2 | inversely proportional |
| CC1CCc2c(sc(NC(=O)c3ccccc3F)c2C(=O)N2CCN(C)CC2)C1 (stereo not shown) | inversely proportional |

###

Condition label: mouse, microsomes, pH 7.4
// reported microsomal stability Clin per item

| Compound | microsomal stability Clin |
| --- | --- |
| CC1CCN(CC(=O)Nc2sc3c(c2C(=O)NCc2ccccc2)CCCC3)CC1 | 2345/510/942/260 μL/min/mg |
| CSc1ncc(Cl)c(C(=O)Nc2sc3c(c2C(=O)NC2CCS(=O)(=O)C2)CCC(C)C3)n1 (stereo not drawn) | 322/36/118/41 μL/min/mg |
| CCC1CCc2c(sc(NC(=O)c3ccnn3C)c2C(=O)Nc2ccccc2C)C1 (stereo not drawn) | 11/22/29/24 μL/min/mg |
| O=C(Nc1sc2c(c1C(=O)N1CCC(CO)C1)CCCC2)c1cccnc1 (stereo not drawn) | 46/23/7/11 μL/min/mg |
| Cn1ccnc1SCC(=O)Nc1sc2c(c1C(=O)NCc1ccccc1)CCCC2 | 2142/954/887/332 μL/min/mg |
| CC1CCc2c(sc(NC(=O)c3ccccc3F)c2C(=O)N2CCN(C)CC2)C1 (stereo not drawn) | 546/91/116/60 μL/min/mg |
